- Experimental Target: RNA-directed RNA polymerase (Hepacivirus hominis)
- Sequence (O39930 whole entry): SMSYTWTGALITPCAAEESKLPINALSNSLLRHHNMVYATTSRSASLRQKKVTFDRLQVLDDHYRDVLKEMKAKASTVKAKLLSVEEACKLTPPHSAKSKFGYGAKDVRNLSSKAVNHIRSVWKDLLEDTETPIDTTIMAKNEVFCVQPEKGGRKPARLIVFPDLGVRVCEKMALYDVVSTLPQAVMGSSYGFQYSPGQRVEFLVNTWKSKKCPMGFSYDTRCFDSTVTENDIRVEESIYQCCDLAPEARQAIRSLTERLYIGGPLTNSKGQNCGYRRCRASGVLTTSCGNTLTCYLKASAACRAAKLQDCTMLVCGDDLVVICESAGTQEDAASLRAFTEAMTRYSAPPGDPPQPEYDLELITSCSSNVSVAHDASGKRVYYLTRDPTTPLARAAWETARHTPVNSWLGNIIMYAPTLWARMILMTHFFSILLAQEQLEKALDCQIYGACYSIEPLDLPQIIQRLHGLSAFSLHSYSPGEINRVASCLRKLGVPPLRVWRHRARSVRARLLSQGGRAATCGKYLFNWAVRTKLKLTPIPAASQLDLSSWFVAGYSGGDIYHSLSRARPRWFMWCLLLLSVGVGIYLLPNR
- Test Summary: Inhibitory activity against HCV 1b BK NS5B deltaC21 RNA polymerase
pIC50: −log10 of the molar value.
Property: pIC50

// known answers, use as guide
Record COc1ccc(CCC2(C3CCCC3)CC(=O)CC(=O)O2)cc1Cl (stereo unspecified) . Reported pIC50: 6.00

Record COc1ccc(CCC2(C3CCCC3)CC(=O)CC(=O)O2)cc1 (stereo unspecified) . Reported pIC50: 5.01

Record COc1ccc(CCC2(C3CCCC3)CC(=O)C(Sc3nccn3C)=C(O)O2)cc1Cl (stereo unspecified) . Reported pIC50: 6.85

Record COc1ccc(CCC2(C3CCCC3)CC(=O)CC(=O)O2)cc1F (stereo unspecified) . Reported pIC50: 6.05

Record CC(C)c1cccc(CCC2(C3CCCC3)CC(=O)CC(=O)O2)c1 (stereo unspecified) . Reported pIC50: 5.74

Record COc1ccc(CCC2(C3CCCC3)CC(=O)C(Sc3ccc(O)cc3)=C(O)O2)cc1Cl (stereo unspecified) . Reported pIC50: 6.89

Record COc1ccc(CCC2(C3CCCC3)CC(=O)C(Sc3ccccc3)=C(O)O2)cc1Cl (stereo unspecified) . Reported pIC50: 6.25

Record COc1ccc(CCC2(C3CCCC3)CC(=O)C(Sc3nncn3C)=C(O)O2)cc1Cl (stereo unspecified) . Reported pIC50: 7.42

[1] O=C1CC(=O)OC(CCc2cccc(Cl)c2)(C2CCCC2)C1 (stereo unspecified)
[2] CCOc1ccc(CCC2(C3CCCC3)CC(=O)CC(=O)O2)cc1 (stereo unspecified)
Prompt line: Between the entries labeled 1 and 2 , whose measured pIC50 is lower? Selection: enter the item's label.
Response line: 1
(1: 5.30, 2: 5.54)
